The measured values listed here are drawn from patent US4009166A.

test system: righting reflex of dd-strain male mice; experiment: Central nervous system depressive effect (disappearance of righting reflex); format: in vivo; settings: Mus musculus, ip; intraperitoneally, mice; read-out: C N S depressive effect (dose required for the disappearance of righting reflex)
This listing pairs compounds with measured minimal effective dose.

[[record]]
compound = "CC(C)N1Cc2cccnc2N(c2cccc(F)c2)C1=O"
measurement_type = "minimal effective dose"
data_value = "3 to 10 mg/kg"

[[record]]
compound = "CC(C)N1Cc2cccnc2N(c2cccc(C(F)(F)F)c2)C1=O"
measurement_type = "minimal effective dose"
data_value = "10 to 30 mg/kg"

[[record]]
compound = "O=C1N(CCF)Cc2cccnc2N1c1ccc(Cl)c(Cl)c1 [drawing 137/CH2 CH2 F]"
measurement_type = "minimal effective dose"
data_value = "3 to 10 mg/kg"

[[record]]
compound = "CCN1CN(c2cccc(Br)c2)c2ncccc2C1=O [drawing 121/C2 H5]"
measurement_type = "minimal effective dose"
data_value = "30 to 100 mg/kg"

[[record]]
compound = "O=C(O)c1ccccc1Nc1cccc(C(F)(F)F)c1 [flufenamic acid, reference compound]"
measurement_type = "minimal effective dose"
data_value = "> 1000 mg/kg"


Here C=CCN1Cc2cccnc2N(c2cccc(Cl)c2)C1=O [drawing 132/CH2 CHCH2] was tested on righting reflex of dd-strain male mice, and its minimal effective dose came to 3 to 10 mg/kg

Lab note: compound CC(C)N1Cc2cccnc2N(c2ccc(Cl)c(Cl)c2)C1=O tested on righting reflex of dd-strain male mice; recorded minimal effective dose was 3 to 10 mg/kg

Measured on righting reflex of dd-strain male mice, CCN1CN(c2cccc(C(F)(F)F)c2)c2ncccc2C1=O [drawing 122/C2 H5] has a documented minimal effective dose of 30 to 100 mg/kg

Form field, minimal effective dose with righting reflex of dd-strain male mice, item CN1Cc2cccnc2N(c2cccc(C(F)(F)F)c2)C1=O [drawing 135/CH3] : 3 to 10 mg/kg

The reported minimal effective dose value, righting reflex of dd-strain male mice, for CCN1Cc2cccnc2N(c2cccc(F)c2)C1=O [drawing 127/C2 H5] reads < 3 mg/kg
